# cytotoxicity at 10 µM values compiled below
assaySummary: Toxicity liver stage against HepG2, at 10uM
Type: cell-based
Parameters: test concentration 10 uM, cell line HepG2-A16-CD81EGFP
conditionNotes: human, HepG2-A16-CD81EGFP cells; read-out: INHIBITION
The reply should be a number in %, with the unit left off.

Please review the entries below; each comes with its answer.
>  <molecule>
NC(=O)CN1CCCCC1c1nc(N)ncc1-c1cccc(F)c1 (stereo not drawn)

>  <recordedNumber>
-13.5

$$$$
>  <molecule>
COC1CN(C(=O)OCC(C)C)CCC(=O)N(C)c2ccccc21 (stereo not drawn)

>  <recordedNumber>
-0.321

$$$$
>  <molecule>
Cc1nc2c(c(N3CCCOCC3)n1)CCN(c1nccs1)CC2

>  <recordedNumber>
3.08

$$$$
>  <molecule>
CC(C)c1cc(NC(=O)CN2CCC(N3CCNC3=O)CC2)on1

>  <recordedNumber>
-10.7

$$$$
>  <molecule>
COc1ccc(-n2cnnc2CC2CCNCC2)cc1

>  <recordedNumber>
-5.53

$$$$

The recorded cytotoxicity at 10 µM for "CC[C@@H]1N(Cc2ccc(C)s2)CCC[C@]12CCC(=O)N2C" is 4.94

The recorded cytotoxicity at 10 µM for "CN(Cc1nnc2n1CCC2)C(=O)c1ccc2c(c1)OCCCO2" is -8.68

The recorded cytotoxicity at 10 µM for "CC(C)c1nnc(NC(=O)Cc2csc(-c3nnc[nH]3)n2)s1" is -47.2

The recorded cytotoxicity at 10 µM for Cc1ccc(CNCC2CCCN2c2cccnn2)s1 (stereo not drawn) is -4.38

The recorded cytotoxicity at 10 µM for "COc1ccccc1OCc1cc(C(=O)N2CCN[C@H](C)C2)n[nH]1" is -9.09

The recorded cytotoxicity at 10 µM for O=C(NCc1ccoc1)NC1CCCN(c2ncccn2)C1 (stereo not drawn) is -1.27

The recorded cytotoxicity at 10 µM for COc1cc2c(cc1C(=O)N1CCCCC1c1ccccn1)CCC2 (stereo not drawn) is -2.8

The recorded cytotoxicity at 10 µM for CC(C)C(=O)N1CCCC(Cc2ncccn2)C1 (stereo not drawn) is -2.49

The recorded cytotoxicity at 10 µM for CN1CCOC(C(=O)N(C)c2ccc3c(c2)CCO3)C1 (stereo not drawn) is -45.4

The recorded cytotoxicity at 10 µM for "COc1ccc(CNc2c(C)cnc3c2c(=O)n(C)c(=O)n3C)cc1" is 2.9

The recorded cytotoxicity at 10 µM for CN(C)c1ccc(C(O)CNC(=O)NCCCc2ccccc2)cc1 (stereo not drawn) is -10

The recorded cytotoxicity at 10 µM for "CCCc1cc(C(=O)N[C@@H]2CCC[C@@H](N3CCCC3)[C@@H]2O)no1" is -2.48

The recorded cytotoxicity at 10 µM for "Cc1ccc(-c2nnc(CNCCn3cc(C)cn3)o2)cc1" is -12.1

The recorded cytotoxicity at 10 µM for "Cc1nc(-c2c(-c3ccccc3)ncn2CCCN2CCOCC2)c[nH]1" is -6.76

----------
assaySummary: Toxicity liver stage against HepG2, at 10uM
Type: cell-based
Design: test concentration 10 uM, cell line HepG2-A16-CD81EGFP
conditionNotes: human, HepG2-A16-CD81EGFP cells; read-out: INHIBITION
# cytotoxicity at 10 µM values compiled below
Record the result as number plus unit.

>  <smilesStructure>
CN(C)S(=O)(=O)N1CC[C@]2(C[C@@H](Oc3ncccc3F)CO2)C1

>  <result>
-67%

$$$$
>  <smilesStructure>
CCOc1cccc(CN2CCCn3nc(CNS(C)(=O)=O)cc3C2)c1

>  <result>
-4.01%

$$$$
>  <smilesStructure>
C[C@@H]1CN(c2ccc(Cl)cn2)CC[C@@]1(O)C1CCOCC1

>  <result>
-2.54%

$$$$
>  <smilesStructure>
COc1ccc(OC)c(CNc2nnc(C(C)(C)C)o2)c1

>  <result>
-6.1%

$$$$
>  <smilesStructure>
Cn1c(=O)oc2cc(Nc3ncc(C#N)cc3Cl)ccc21

>  <result>
4.93%

$$$$

Next item in the queue.
The recorded cytotoxicity at 10 µM for "CCc1nc(-c2noc3ccc(C(=O)N(C)CCOC)cc23)co1" is -138%

----------
assaySummary: Toxicity liver stage against HepG2, at 10uM
Assay type: cell-based
Set-up: test concentration 10 uM, cell line HepG2-A16-CD81EGFP
conditionNotes: human, HepG2-A16-CD81EGFP cells; read-out: INHIBITION
# cytotoxicity at 10 µM values compiled below
The reply should be a number in %, with the unit left off.

Please review the entries below; each comes with its answer.
>  <compound>
COc1cccc(COCC(=O)N2CCCN(CC(N)=O)CC2)c1

>  <cytotoxicity at 10 µM [%]>
-7.04

$$$$
>  <compound>
COc1cc(C(N)=O)c(N(C)S(C)(=O)=O)cc1OC

>  <cytotoxicity at 10 µM [%]>
-7.39

$$$$
>  <compound>
O=C(c1ccc(S(=O)(=O)NCc2ccon2)cc1)N1CCCCCC1

>  <cytotoxicity at 10 µM [%]>
0.424

$$$$
>  <compound>
Cn1cc(CCC(=O)N2CCN(Cc3ccncc3)CC2)cn1

>  <cytotoxicity at 10 µM [%]>
-6.64

$$$$
>  <compound>
Cc1cc(C2CCCN2C(=O)NCc2cccc(F)c2)on1 (stereo unspecified)

>  <cytotoxicity at 10 µM [%]>
24.8

$$$$
>  <compound>
O=C1CCC(C(=O)N2CCC(Cn3cc(C4CCCC4)nn3)CC2)=NN1

>  <cytotoxicity at 10 µM [%]>
5.14

$$$$
>  <compound>
COc1ccccc1-c1nc(C(=O)N(C)C)n2ccncc12

>  <cytotoxicity at 10 µM [%]>
12.6

$$$$
>  <compound>
Cc1cc(N(C)C)nc(N2CCn3c(nnc3C3CC3)C2)n1

>  <cytotoxicity at 10 µM [%]>
0.485

$$$$
>  <compound>
CO[C@H]1CC[C@H]2[C@H]1OCCN2CCOCc1ccccc1

>  <cytotoxicity at 10 µM [%]>
-114

$$$$
>  <compound>
COc1cccc(-c2c[nH]c(C)n2)c1F

>  <cytotoxicity at 10 µM [%]>
-3.29

$$$$

Next item in the queue.
The recorded cytotoxicity at 10 µM for "Cc1cc(NS(=O)(=O)c2ccc(Cl)s2)ccc1-n1cccc1C(=O)O" is 3.2

----------
assaySummary: Toxicity liver stage against HepG2, at 10uM
Format: cell-based
Set-up: test concentration 10 uM, cell line HepG2-A16-CD81EGFP
conditionNotes: human, HepG2-A16-CD81EGFP cells; read-out: INHIBITION
measurementLabel: cytotoxicity at 10 µM
Record the result as number plus unit.

The recorded cytotoxicity at 10 µM for Cc1cc(C)nc(C2CCN(c3ccncn3)C2)n1 (centres undefined) is -0.419%

----------
# cytotoxicity at 10 µM values compiled below
assaySummary: Toxicity liver stage against HepG2, at 10uM
Format: cell-based
Design: test concentration 10 uM, cell line HepG2-A16-CD81EGFP
conditionNotes: human, HepG2-A16-CD81EGFP cells; read-out: INHIBITION
The reply should be a number in %, with the unit left off.

>  <compound>
O=C(NCC1CC1)Nc1ccc(OCC(F)(F)F)nc1

>  <readoutUnits>
%

>  <cytotoxicity at 10 µM>
-2.4

$$$$
>  <compound>
COCCN1CCN(Cc2nc3c(s2)CCCC3)[C@H]2CS(=O)(=O)C[C@H]21

>  <readoutUnits>
%

>  <cytotoxicity at 10 µM>
6.81

$$$$
>  <compound>
COc1cccc(CCNC(=O)CN2CCCC2c2noc(C)n2)c1 (stereo unspecified)

>  <readoutUnits>
%

>  <cytotoxicity at 10 µM>
-0.489

$$$$

The recorded cytotoxicity at 10 µM for CC(CO)N1CCN(C(=O)OC(C)(C)C)CC1 (stereo unspecified) is -7.85

The recorded cytotoxicity at 10 µM for CCN(CC)Cc1ccc(C(=O)N2CCCCC2Cn2cccn2)o1 (stereo unspecified) is -7.89

The recorded cytotoxicity at 10 µM for "CC(C)CCN(C)C(=O)c1nc(S(C)(=O)=O)n2ccccc12" is -9.91

----------
assaySummary: Toxicity liver stage against HepG2, at 10uM
Format: cell-based
Parameters: test concentration 10 uM, cell line HepG2-A16-CD81EGFP
conditionNotes: human, HepG2-A16-CD81EGFP cells; read-out: INHIBITION
measurementLabel: cytotoxicity at 10 µM (%)
The reply should be a number in %, with the unit left off.

Please review the entries below; each comes with its answer.
>  <molecule>
Cc1cnn(CC(C)NCc2nc(-c3ccoc3)no2)c1 (stereo unspecified)

>  <cytotoxicity at 10 µM (%)>
23.3

$$$$
>  <molecule>
O=C1C(N2CC[C@@H](O)C2)CCCN1Cc1cccc(C(F)(F)F)c1 (stereo partly specified)

>  <cytotoxicity at 10 µM (%)>
1.22

$$$$
>  <molecule>
CC(C)c1ccc(N2CCc3onc(-c4ccc(F)c(F)c4)c3C2)nn1

>  <cytotoxicity at 10 µM (%)>
0.324

$$$$
>  <molecule>
O=C(c1cc2cccc(F)c2[nH]1)N1C[C@@H](O)[C@H](N2CCCC2)C1

>  <cytotoxicity at 10 µM (%)>
0.152

$$$$
>  <molecule>
Cc1ccccc1N1CCCN(C(=O)CCc2nncn2C)CC1

>  <cytotoxicity at 10 µM (%)>
3.82

$$$$
>  <molecule>
Cc1csc(C(=O)N2CC(S(=O)(=O)C3CCCCC3)C2)c1

>  <cytotoxicity at 10 µM (%)>
-2.83

$$$$
>  <molecule>
CC(CNC(=O)c1cnccn1)Oc1cccc(Br)c1 (stereo unspecified)

>  <cytotoxicity at 10 µM (%)>
1.25

$$$$
>  <molecule>
O=C(C[C@@H]1COC[C@H]2CN(Cc3cccnc3)C[C@@H]12)N1CCOCC1

>  <cytotoxicity at 10 µM (%)>
-3.35

$$$$
>  <molecule>
CC(C)NC(=O)C1CN(Cc2ccsc2)Cc2ccnn2C1 (stereo unspecified)

>  <cytotoxicity at 10 µM (%)>
-5.03

$$$$
>  <molecule>
CCC(C)Oc1cc(C(=O)Nc2nc(C)ns2)ccn1 (stereo unspecified)

>  <cytotoxicity at 10 µM (%)>
-1.02

$$$$

The recorded cytotoxicity at 10 µM for CC(C)CNC(=O)c1cc(C2CC2)nc2c1c(C1CCCN1)nn2C (stereo unspecified) is 15.9

The recorded cytotoxicity at 10 µM for CC(C)c1nnc2n1CCN(C(C)c1nnc(-c3cccs3)o1)C2 (stereo unspecified) is 7.8

The recorded cytotoxicity at 10 µM for CN(C)c1ccc(C(=O)N2CCN(CC(O)C(C)(C)C)CC2)nn1 (stereo unspecified) is -19.2

The recorded cytotoxicity at 10 µM for "COc1ccc(C[C@H]2CN(C3CCOCC3)CC[C@@H]2OCC2CC2)cc1" is 2.38

The recorded cytotoxicity at 10 µM for "Cc1nnc([C@]23COC[C@H]2CN(Cc2cccs2)C3)o1" is -3.34

The recorded cytotoxicity at 10 µM for COc1c(C2CCCN2C(=O)c2sccc2C#N)c(C)nn1C (stereo unspecified) is 3.33

The recorded cytotoxicity at 10 µM for "CCS(=O)(=O)c1ncc(CN2CCCC2)n1CCc1ccccc1" is 5.35
